B1: OR4K15 (parent)
chain: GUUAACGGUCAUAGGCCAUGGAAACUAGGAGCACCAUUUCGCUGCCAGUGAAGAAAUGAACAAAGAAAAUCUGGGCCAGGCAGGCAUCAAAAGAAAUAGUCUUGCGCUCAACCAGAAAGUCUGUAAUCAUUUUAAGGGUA

# Variants of: B1
# Test method notes: self-cleavage, relative activity (ratio to wild type); higher = more cleavage; in vitro, sequencing; the parent is a self-cleaving ribozyme
Label satisfied for high-side self-cleavage (at or above 1) and not satisfied for low-side self-cleavage (below it).

Decide: self-cleavage of A91G A135U >= 1? satisfied

Decide: self-cleavage of A51G G138C >= 1? satisfied

Decide: self-cleavage of A60G G80U >= 1? not satisfied

Decide: self-cleavage of A64U U72A >= 1? not satisfied

Decide: self-cleavage of A64G A126G >= 1? satisfied

This collection of values is drawn from the RNAGym collection of RNA variant scans (doi:10.7554/elife.90254).
